Numbers sourced from patent US20150010928A1.

# Tested on: male rats
# Test Protocol: Plasma metabolite profiling (GC-MS, LC-MS, SPE-LC-MS) in male rats dosed once daily over 28 days (OECD 407)
# Type: in vivo, rat
# Experimental Setup: m28; high dose; Table 10a
Where a name gives a salt, the structure may show the parent alone. Marks after values point to notes of the source that are not given here.
Listed below: threo-Sphingosine (d18:1) values for each entry.
Assay Endpoint: threo-Sphingosine (d18:1)

# Compound, Target Of Assay, Assay Endpoint, Test Value
records = [
    ("CNCCC(Oc1ccc(C(F)(F)F)cc1)c1ccccc1 (stereo not shown) [Fluoxetine hydrochloride]", "male rats", "threo-Sphingosine (d18:1)", "2.2 *"),
    ("CC(C)C(=O)Nc1ccc([N+](=O)[O-])c(C(F)(F)F)c1 [Flutamide]", "male rats", "threo-Sphingosine (d18:1)", "1.38 *"),
    ("Cn1cc[nH]c1=S", "male rats", "threo-Sphingosine (d18:1)", "4.28 *"),
    ("Cc1cccc(C)c1N(Cn1cccn1)C(=O)CCl", "male rats", "threo-Sphingosine (d18:1)", "3.33 *"),
]

---

Entries annotated with measured Threonine, ratio versus control
# Tested on: male rats
# Test Protocol: Plasma metabolite profiling (GC-MS, LC-MS, SPE-LC-MS) in male rats dosed once daily over 28 days (OECD 407)
# Type: in vivo, rat
# Experimental Setup: male rats, plasma, high dose, day 7
Marks after values point to notes of the source that are not given here.

# Compound, Target Of Assay, Threonine, ratio versus control
rows = [
    ("CCNC(=O)[C@@H]1CCCN1C(=O)[C@H](CCCNC(=N)N)NC(=O)[C@H](CC(C)C)NC(=O)[C@@H](COC(C)(C)C)NC(=O)[C@H](Cc1ccc(O)cc1)NC(=O)[C@H](CO)NC(=O)[C@H](Cc1c[nH]c2ccccc12)NC(=O)[C@H](Cc1cnc[nH]1)NC(=O)[C@@H]1CCC(=O)N1 [Buserelin acetate a.c., Buserelin acetate]", "male rats", "1.01 *"),
    ("O=P1(NCCCl)OCCCN1CCCl (centres unmarked) [Ifosfamide]", "male rats", 1.21),
    ("C[C@@H]1CC2=CC(=O)CC[C@@H]2[C@H]2CC[C@@]3(C)[C@@H](CC[C@]3(C)O)[C@@H]21", "male rats", "0.76 *"),
    ("CC(=O)O[C@]1(C(C)=O)CC[C@H]2[C@@H]3C[C@H](C)C4=CC(=O)CC[C@]4(C)[C@H]3CC[C@@]21C", "male rats", "0.82 *"),
    ("C#C[C@]1(OC(C)=O)CC[C@H]2[C@@H]3CCC4=CC(=O)CC[C@@H]4[C@H]3CC[C@@]21C [Norethindrone acetate]", "male rats", "0.88 *"),
]

---

# Test system: male rats
# Test Protocol: Plasma metabolite profiling (GC-MS, LC-MS, SPE-LC-MS) in male rats dosed once daily over 28 days (OECD 407)
# Format: in vivo, rat
# Experimental Setup: m7; high dose; Table 14b
Structures can show the parent of a compound that is named as a salt.
Note to self: values exactly at 0.4 are 1.0. So Sphingomyelin (d18:2, C16:0) at or above 0.4 is 1.0, below is 0.0.

# Molecule, Assigned Class
rows = [
    ("C[C@]12C=CC3=C4CCC(=O)C=C4CCC3C1CC[C@@H]2O (stereo partly drawn) [Trenbolone]", 0.0),
    ("O=C(c1ccc(OCCN2CCCCC2)cc1)c1c(-c2ccc(O)cc2)sc2cc(O)ccc12 [Raloxifene Hydrochloride]", 1.0),
    ("OCCNCCO [Diethanolamine]", 1.0),
    ("C#C[C@]1(O)CC[C@H]2[C@@H]3CCc4cc(O)ccc4[C@H]3CC[C@@]21C [17-alpha-Ethynylestradiol]", 0.0),
    ("CC/C(=C(\\c1ccccc1)c1ccc(OCCN(C)C)cc1)c1ccccc1 [Tamoxifen]", 1.0),
]

---

# Test system: male rats
# Test Protocol: Plasma metabolite profiling (GC-MS, LC-MS, SPE-LC-MS) in male rats dosed once daily over 28 days (OECD 407)
# Assay type: in vivo, rat
# Experimental Setup: m28; high dose; Table 10b
Where a name gives a salt, the structure may show the parent alone. Marks after values point to notes of the source that are not given here.
Known Thyroxine (T4) of a selection of compounds

# Compound, Thyroxine (T4)
rows = [
    ("CNCCC(Oc1ccc(C(F)(F)F)cc1)c1ccccc1 (stereo not shown) [Fluoxetine hydrochloride]", 0.72),
    ("CC(C)C(=O)Nc1ccc([N+](=O)[O-])c(C(F)(F)F)c1 [Flutamide]", "0.72^"),
    ("Cc1cccc(C)c1N(Cn1cccn1)C(=O)CCl [Metazachlor]", "0.74^"),
    ("Cn1cc[nH]c1=S [Methimazole]", "0.02 *"),
]

---

# Tested on: male rats
# Test Protocol: Plasma metabolite profiling (GC-MS, LC-MS, SPE-LC-MS) in male rats dosed once daily over 28 days (OECD 407)
# Type: in vivo, rat
# Experimental Setup: male rats, plasma, high dose, day 7
Marks after values point to notes of the source that are not given here.
# maps each entry to its Uric acid, ratio versus control

# Compound, Uric acid, ratio versus control
records = [
    ("C[C@@H]1CC2=CC(=O)CC[C@@H]2[C@H]2CC[C@@]3(C)[C@@H](CC[C@]3(C)O)[C@@H]21 [Mibolerone]", "0.66 *"),
    ("CCNC(=O)[C@@H]1CCCN1C(=O)[C@H](CCCNC(=N)N)NC(=O)[C@H](CC(C)C)NC(=O)[C@@H](COC(C)(C)C)NC(=O)[C@H](Cc1ccc(O)cc1)NC(=O)[C@H](CO)NC(=O)[C@H](Cc1c[nH]c2ccccc12)NC(=O)[C@H](Cc1cnc[nH]1)NC(=O)[C@@H]1CCC(=O)N1 [Buserelin acetate a.c., Buserelin acetate]", "0.59 *"),
    ("C#C[C@]1(OC(C)=O)CC[C@H]2[C@@H]3CCC4=CC(=O)CC[C@@H]4[C@H]3CC[C@@]21C [Norethindrone acetate]", "0.7 *"),
    ("O=P1(NCCCl)OCCCN1CCCl (centres unmarked) [Ifosfamide]", 0.57),
    ("CC(=O)O[C@]1(C(C)=O)CC[C@H]2[C@@H]3C[C@H](C)C4=CC(=O)CC[C@]4(C)[C@H]3CC[C@@]21C [Medroxyprogesterone acetat]", "0.6 *"),
]

---

Here, each record is paired with measured Oleic acid (C18:cis[9]1) data.
# Tested on: male rats
# Test Protocol: Plasma metabolite profiling (GC-MS, LC-MS, SPE-LC-MS) in male rats dosed once daily over 28 days (OECD 407)
# Format: in vivo, rat
# Experimental Setup: m14; high dose; Table 10b
Structures can show the parent of a compound that is named as a salt. Marks after values point to notes of the source that are not given here.
Assay Endpoint: Oleic acid (C18:cis[9]1)

# Compound, Assay Endpoint, Test Value
records = [
    ("Cc1cccc(C)c1N(Cn1cccn1)C(=O)CCl", "Oleic acid (C18:cis[9]1)", "1.82^"),
    ("CNCCC(Oc1ccc(C(F)(F)F)cc1)c1ccccc1 (stereo not shown) [Fluoxetine hydrochloride]", "Oleic acid (C18:cis[9]1)", "0.88 *"),
    ("Cn1cc[nH]c1=S", "Oleic acid (C18:cis[9]1)", "0.97^"),
    ("CC(C)C(=O)Nc1ccc([N+](=O)[O-])c(C(F)(F)F)c1 [Flutamide]", "Oleic acid (C18:cis[9]1)", 1.1),
]

---

# Test system: male rats
# Test Protocol: Plasma metabolite profiling (GC-MS, LC-MS, SPE-LC-MS) in male rats dosed once daily over 28 days (OECD 407)
# Type: in vivo, rat
# Experimental Setup: male rats, plasma, high dose, day 14
Marks after values point to notes of the source that are not given here.
Assay Endpoint: Androstenedione, ratio versus control

# Compound, Test Value
measured = [
    ("O=P1(NCCCl)OCCCN1CCCl (stereo not shown) [Ifosfamide]", "0.21 *"),
    ("CC(=O)O[C@]1(C(C)=O)CC[C@H]2[C@@H]3C[C@H](C)C4=CC(=O)CC[C@]4(C)[C@H]3CC[C@@]21C [Medroxyprogesterone acetat]", "0.28 *"),
    ("C[C@@H]1CC2=CC(=O)CC[C@@H]2[C@H]2CC[C@@]3(C)[C@@H](CC[C@]3(C)O)[C@@H]21 [Mibolerone]", "0.96^"),
    ("CCNC(=O)[C@@H]1CCCN1C(=O)[C@H](CCCNC(=N)N)NC(=O)[C@H](CC(C)C)NC(=O)[C@@H](COC(C)(C)C)NC(=O)[C@H](Cc1ccc(O)cc1)NC(=O)[C@H](CO)NC(=O)[C@H](Cc1c[nH]c2ccccc12)NC(=O)[C@H](Cc1cnc[nH]1)NC(=O)[C@@H]1CCC(=O)N1 [Buserelin acetate a.c., Buserelin acetate]", "0.5 *"),
]

---

Quick list: alpha-Tocopherol per entry.
# System: male rats
# Test Protocol: Plasma metabolite profiling (GC-MS, LC-MS, SPE-LC-MS) in male rats dosed once daily over 28 days (OECD 407)
# Format: in vivo, rat
# Experimental Setup: m14; high dose; Table 10a
Structures can show the parent of a compound that is named as a salt. Marks after values point to notes of the source that are not given here.
Assay Endpoint: alpha-Tocopherol

# Compound, Target Of Assay, Test Value
measured = [
    ("CC(C)C(=O)Nc1ccc([N+](=O)[O-])c(C(F)(F)F)c1 [Flutamide]", "male rats", 1.24),
    ("Cc1cccc(C)c1N(Cn1cccn1)C(=O)CCl [Metazachlor]", "male rats", "2.2 *"),
    ("Cn1cc[nH]c1=S [Methimazole]", "male rats", "2.66 *"),
    ("CNCCC(Oc1ccc(C(F)(F)F)cc1)c1ccccc1 (stereo not shown) [Fluoxetine hydrochloride]", "male rats", "1.64 *"),
]
